- assay procedure: Cytotoxicity, MTT assay
- Format: cell-based
- study conditions: mouse, J744A.1 cells, 64 μg/mL, read-out: survival rate

>  <substance>
Ac-KRIVQRIKDFLRAGPRRWWRW-NH2 (N-terminus and C-terminus assumed) [KR12AGPWR6]

>  <viability at 24 h, 64 µg/mL>
~70%

$$$$
